Tested on: SK-OV-3 ovarian
Assay: NCI tumour cell line growth inhibition, 48 h; in the data active = GI50 below about 0.43 µM; inactive = the rest
Write down one outcome, taken from active, inactive

Examples from the recorded data:
molecule=C=C(C)[C@@H]1CC[C@]2(COCCCNCCCN)CC[C@]3(C)[C@H](CC[C@@H]4[C@@]5(C)CC[C@H](OCCCN)C(C)(C)[C@@H]5CC[C@]43C)[C@@H]12 discrete_label=inactive
molecule="COC1CC(C)C(OC)c2cc(O)cc(c2O)NC(=O)/C(C)=C/C=C\\C(C)C(OC(N)=O)/C(C)=C\\C(C)C1OC (centres undefined)" discrete_label=active
molecule="CCN1C(=O)N(CC)C2C1NN=c1s/c(=C\\c3cccs3)c(=O)n12 (centres undefined)" discrete_label=inactive
molecule=CCCCCCCCCCCC[N+](C)(C)Cc1ccccc1 discrete_label=inactive

Fill in: this test's call for CCC#CC[C@H](O)C/C=C1/C(=O)C=C[C@@H]1C/C=C\CCCC(=O)OC is ___
inactive

Fill in: this test's call for O=P(O)(O)OCC1OC(n2cnc3c(NCc4ccco4)ncnc32)C(O)C1O (centres undefined) is ___
inactive

Fill in: this test's call for COc1cccc(OC(=O)c2ccc(C(F)(F)F)nc2Nc2c(C)cccc2Cl)c1 is ___
inactive

Fill in: this test's call for CC(=Nc1ccccc1)C1=C(O)C(Cc2cccc(F)c2)NC1=O (centres undefined) is ___
active

Fill in: this test's call for Clc1ccccc1[C@@H]1C[C@@H]2Cc3cc(Br)c4ccccc4c3N1O2 is ___
inactive
